# Measured On: BACE1 (Homo sapiens (Human))
# Sequence (P56817 46-501): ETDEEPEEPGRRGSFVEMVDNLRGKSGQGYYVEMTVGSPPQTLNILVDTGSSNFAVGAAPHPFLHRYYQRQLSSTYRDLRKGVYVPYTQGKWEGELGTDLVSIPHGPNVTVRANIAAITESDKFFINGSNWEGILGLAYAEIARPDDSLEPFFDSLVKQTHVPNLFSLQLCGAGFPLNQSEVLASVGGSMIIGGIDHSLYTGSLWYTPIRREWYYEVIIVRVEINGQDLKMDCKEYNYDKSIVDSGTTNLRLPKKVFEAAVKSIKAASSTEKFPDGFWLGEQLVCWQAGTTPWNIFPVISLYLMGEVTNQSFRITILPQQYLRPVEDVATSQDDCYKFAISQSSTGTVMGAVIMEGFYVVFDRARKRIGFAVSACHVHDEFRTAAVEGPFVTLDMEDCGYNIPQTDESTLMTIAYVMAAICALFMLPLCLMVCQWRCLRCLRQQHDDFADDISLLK
# Assay Comment: BACE1 FP assay
# Format: biochemical
# Measurement Context: pH 4.5
Reported Endpoint: IC50 (nM)

# annotated cases, reported IC50 shown
INSERT INTO measurements (compound, measured_on, reported) VALUES
  ('CC1(c2cc(NC(=O)c3ccc(F)cn3)ccc2F)CC2(CCOCC2)SC(N)=N1 (stereo not shown) [Compound 9-147]', 'BACE1 (Homo sapiens (Human))', 29),
  ('C[C@@]1(c2cc(Nc3ncnc4cc(Cl)ccc34)ccc2F)CC2(CCC2)OC(N)=N1 [Compound 11-173]', 'BACE1 (Homo sapiens (Human))', 8550),
  ('C[C@@]1(c2cc(NC(=O)c3ccc(Br)cn3)ccc2F)CC2(CCC(F)(F)CC2)OC(N)=N1 [Compound 9-136]', 'BACE1 (Homo sapiens (Human))', 50),
  ('CC#Cc1cncc(-c2csc([C@@]3(C)CC4(CCOCC4)OC(N)=N3)c2)c1 [Compound 8-105]', 'BACE1 (Homo sapiens (Human))', 84900),
  ('C[C@@]1(c2cc(NC(=O)c3ccc(Cl)cn3)ccc2F)CC2(CCC2)SC(N)=N1 [Compound 9-145]', 'BACE1 (Homo sapiens (Human))', 1.9);

1: C[C@@]1(c2cc(NC(=O)c3ccc(C#N)cn3)ccc2F)CC2(CCC2)OC(N)=N1 [Compound 9-130]
2: CC#Cc1cncc(-c2cc([C@]3(C)CC4(CCOCC4)OC(N)=N3)sc2C)c1 [Compound 8-108]
3: C[C@@]1(c2cc(NC(=O)C3CC3)ccc2F)CC2(CCC(F)(F)CC2)OC(N)=N1 [Compound 9-134]
4: C[C@@]1(c2cc(NC(=O)c3ccc(F)cn3)ccc2F)CC2(CCC(F)(F)CC2)OC(N)=N1 [Compound 9-123]
5: CC#Cc1cncc(-c2csc(C3(C)N=C(N)OC4(CCOCC4)C3(F)F)c2)c1 (stereo not shown) [Compound 8-114]
Input: Sort low-to-high on IC50, please. Answer format: list of labels, ordered as asked.
Output: 1, 4, 5, 2, 3

I: COc1cnc(C(=O)Nc2ccc(F)c([C@]3(C)CC4(CCOCC4)SC(N)=N3)c2)cn1 [Compound 9-153]
II: CC#Cc1cncc(-c2csc([C@]3(C)CC4(CCC(F)(F)CC4)OC(N)=N3)c2)c1 [Compound 8-110]
Input: Would you mind telling me which has the lower recorded IC50 between I and II ? Answer by stating the label of the chosen item.
Output: I

A: C[C@@]1(c2cc(NC(=O)c3ccc(F)cn3)ccc2F)CC2(CCOCC2)SC(N)=N1 [Compound 9-148]
B: C[C@@]1(c2cc(NC(=O)c3ccc(Cl)cn3)ccc2F)CC2(CCOCC2)SC(N)=N1 [Compound 9-151]
Input: Would you mind telling me which has the lower recorded IC50 between A and B ? Answer by stating the label of the chosen item.
Output: B

Numbers sourced from patent US9493485B2.
